We begin with a simple list: items and their reported β-Arrestin EC50.
- experimental target: chemokine receptor CXCR7 (UniProt P25106 1-362, limits assumed)
- Sequence (P25106 whole entry): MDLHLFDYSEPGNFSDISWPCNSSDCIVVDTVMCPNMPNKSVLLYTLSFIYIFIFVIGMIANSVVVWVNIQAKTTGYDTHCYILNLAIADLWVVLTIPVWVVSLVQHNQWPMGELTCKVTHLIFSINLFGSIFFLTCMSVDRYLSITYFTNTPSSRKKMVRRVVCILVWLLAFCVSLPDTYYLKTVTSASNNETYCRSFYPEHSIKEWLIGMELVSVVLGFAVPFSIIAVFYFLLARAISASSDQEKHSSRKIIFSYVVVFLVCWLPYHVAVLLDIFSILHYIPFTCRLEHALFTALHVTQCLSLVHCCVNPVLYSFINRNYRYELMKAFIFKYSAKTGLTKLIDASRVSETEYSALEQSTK
- method summary: cell-based or functional assay
Square brackets hold non-standard residues; d marks the D form. dPro(4S-NH2) = N[C@@H]1CN[C@@H](C(=O)O)C1; Tic = O=C(O)[C@@H]1Cc2ccccc2CN1; Orn(A56) = not defined here; Nle = CCCC[C@H](N)C(=O)O
Field: numeric (nM). Do not append units.

- binder: "cyclo([Nle][dR]RW[dP]T) (SMILES CCCC[C@@H]1NC(=O)[C@H]([C@@H](C)O)NC(=O)[C@H]2CCCN2C(=O)[C@H](Cc2c[nH]c3ccccc23)NC(=O)[C@H](CCCNC(=N)N)NC(=O)[C@@H](CCCNC(=N)N)NC1=O) [cyclo(-Nle-^DArg-Arg-Trp-^DPro-Thr-)]"
  numeric value: 2.8
- binder: "cyclo(W[dF]WR[dPro(4S-NH2)][Tic]) (SMILES N=C(N)NCCC[C@@H]1NC(=O)[C@H](Cc2c[nH]c3ccccc23)NC(=O)[C@@H](Cc2ccccc2)NC(=O)[C@H](Cc2c[nH]c3ccccc23)NC(=O)[C@@H]2Cc3ccccc3CN2C(=O)[C@H]2C[C@H](N)CN2C1=O) [cyclo(-Trp-^DPhe-Trp-Arg-^DPro((4S)NH2)-Tic-)]"
  numeric value: 17.5

Could you now look at the following binder, please?
The binder identified as cyclo(I[dR][Orn(A56)]W[dP]T) (reading uncertain; also: printed as cyclo(-Ile-^DArg-Orn(A56)-Trp-^DPro-Thr-)) [cyclo(-Ile-^DArg-Orn(A56)-Trp-^DPro-Thr-)] registered its β-Arrestin EC50 at 3.2
